Target system: Opioid receptors; mu & kappa (Homo sapiens) (UniProt P41145+P35372)
Sequence (P41145 whole entry, looked up, one chain of several): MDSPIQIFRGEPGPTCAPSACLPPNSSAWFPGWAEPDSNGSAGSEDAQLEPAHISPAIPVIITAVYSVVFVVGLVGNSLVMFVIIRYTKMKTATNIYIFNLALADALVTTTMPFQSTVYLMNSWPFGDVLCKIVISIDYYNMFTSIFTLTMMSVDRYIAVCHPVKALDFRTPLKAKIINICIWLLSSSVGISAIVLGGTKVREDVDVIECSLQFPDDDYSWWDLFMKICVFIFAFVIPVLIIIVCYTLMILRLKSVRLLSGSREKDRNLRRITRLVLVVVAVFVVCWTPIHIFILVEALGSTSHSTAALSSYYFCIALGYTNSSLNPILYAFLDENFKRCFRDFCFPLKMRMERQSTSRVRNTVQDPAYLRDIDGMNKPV
Assay overview: Ratio of (Ke) mu-opioid receptor to that of (Ke) kappa-opioid receptor
Format: protein assay
Each record here notes measured Ratio.
Write the value as a bare number.

Example results:
Chemical string | Target system | Ratio
N=C(N)NCCc1ccc2[nH]c3c(c2c1)C[C@@]1(O)[C@H]2Cc4ccc(O)c5c4[C@@]1(CCN2CC1CC1)[C@H]3O5 | Opioid receptors; mu & kappa (Homo sapiens) (UniProt P41145+P35372) | 3
N/C(=N/Cc1ccccc1)Nc1ccc2[nH]c3c(c2c1)C[C@@]1(O)[C@H]2Cc4ccc(O)c5c4[C@@]1(CCN2CC1CC1)[C@H]3O5 | Opioid receptors; mu & kappa (Homo sapiens) (UniProt P41145+P35372) | 24
N/C(=N/Cc1cccc(O)c1)Nc1ccc2[nH]c3c(c2c1)C[C@@]1(O)[C@H]2Cc4ccc(O)c5c4[C@@]1(CCN2CC1CC1)[C@H]3O5 | Opioid receptors; mu & kappa (Homo sapiens) (UniProt P41145+P35372) | 33
N/C(=N/Cc1ccc(N)cc1)Nc1ccc2[nH]c3c(c2c1)C[C@@]1(O)[C@H]2Cc4ccc(O)c5c4[C@@]1(CCN2CC1CC1)[C@H]3O5 | Opioid receptors; mu & kappa (Homo sapiens) (UniProt P41145+P35372) | 14

Now take the following molecule into account.
Enquiry: Entry CCC/N=C(\NCCC)Nc1ccc2[nH]c3c(c2c1)C[C@@]1(O)[C@H]2Cc4ccc(O)c5c4[C@@]1(CCN2CC1CC1)[C@H]3O5 has what Ratio?
Return: 18

---

Target system: Mu-type opioid receptor (Homo sapiens, UniProt P35372)
Sequence (P35372 whole entry): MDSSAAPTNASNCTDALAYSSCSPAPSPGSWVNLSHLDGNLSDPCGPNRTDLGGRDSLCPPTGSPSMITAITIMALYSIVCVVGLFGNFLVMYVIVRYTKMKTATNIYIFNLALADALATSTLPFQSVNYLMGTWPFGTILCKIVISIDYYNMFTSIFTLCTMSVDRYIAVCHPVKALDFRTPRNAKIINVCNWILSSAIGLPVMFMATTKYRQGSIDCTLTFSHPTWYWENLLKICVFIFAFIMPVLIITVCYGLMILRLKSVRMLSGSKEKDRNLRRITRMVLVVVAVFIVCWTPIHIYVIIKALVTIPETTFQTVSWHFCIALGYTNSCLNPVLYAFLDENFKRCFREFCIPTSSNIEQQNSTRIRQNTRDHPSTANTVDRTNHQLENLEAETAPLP
Assay overview: Antagonistic activity against cloned human Opioid receptor mu 1 using DAMGO as ligand in [35S]GTP-gamma-S, assay
Format: functional
# label = bin(measured Ke), where bins are c1 = under 3 nM, c2 = from 3 nM up to 4 nM, c3 = 4 nM and over

Field: example entries. Status: answers known.
Chemical string | Target system | Cat
CCCC/N=C(\NCCCC)Nc1ccc2[nH]c3c(c2c1)C[C@@]1(O)[C@H]2Cc4ccc(O)c5c4[C@@]1(CCN2CC1CC1)[C@H]3O5 | Mu-type opioid receptor (Homo sapiens, UniProt P35372) | c3
N/C(=N/Cc1cccc(O)c1)Nc1ccc2[nH]c3c(c2c1)C[C@@]1(O)[C@H]2Cc4ccc(O)c5c4[C@@]1(CCN2CC1CC1)[C@H]3O5 | Mu-type opioid receptor (Homo sapiens, UniProt P35372) | c3

Enquiry: Which band does N/C(=N/Cc1ccc([N+](=O)[O-])cc1)Nc1ccc2[nH]c3c(c2c1)C[C@@]1(O)[C@H]2Cc4ccc(O)c5c4[C@@]1(CCN2CC1CC1)[C@H]3O5 fall in?
Return: c2

Enquiry: Which band does CCC/N=C(\NCCC)Nc1ccc2[nH]c3c(c2c1)C[C@@]1(O)[C@H]2Cc4ccc(O)c5c4[C@@]1(CCN2CC1CC1)[C@H]3O5 fall in?
Return: c3

Enquiry: Which band does N/C(=N\CCc1ccc2[nH]c3c(c2c1)C[C@@]1(O)[C@H]2Cc4ccc(O)c5c4[C@@]1(CCN2CC1CC1)[C@H]3O5)NCc1ccc(N)cc1 fall in?
Return: c1

Enquiry: Which band does N/C(=N/Cc1ccc(Cl)cc1)Nc1ccc2[nH]c3c(c2c1)C[C@@]1(O)[C@H]2Cc4ccc(O)c5c4[C@@]1(CCN2CC1CC1)[C@H]3O5 fall in?
Return: c3

Enquiry: Which band does N/C(=N/Cc1ccc(N)cc1)Nc1ccc2[nH]c3c(c2c1)C[C@@]1(O)[C@H]2Cc4ccc(O)c5c4[C@@]1(CCN2CC1CC1)[C@H]3O5 fall in?
Return: c1

Enquiry: Which band does N/C(=N/Cc1ccc(O)cc1)Nc1ccc2[nH]c3c(c2c1)C[C@@]1(O)[C@H]2Cc4ccc(O)c5c4[C@@]1(CCN2CC1CC1)[C@H]3O5 fall in?
Return: c3

Enquiry: Which band does Oc1ccc2c3c1O[C@H]1c4[nH]c5ccc(N/C(=N/CC6CC6)NCc6ccccc6)cc5c4C[C@@]4(O)[C@@H](C2)N(CC2CC2)CC[C@]314 fall in?
Return: c1

Enquiry: Which band does CCCN/C(=N\CC1CC1)Nc1ccc2[nH]c3c(c2c1)C[C@@]1(O)[C@H]2Cc4ccc(O)c5c4[C@@]1(CCN2CC1CC1)[C@H]3O5 fall in?
Return: c2

Enquiry: Which band does N=C(N)NCc1ccc2[nH]c3c(c2c1)C[C@@]1(O)[C@H]2Cc4ccc(O)c5c4[C@@]1(CCN2CC1CC1)[C@H]3O5 fall in?
Return: c2

Enquiry: Which band does N/C(=N\CCc1ccc2[nH]c3c(c2c1)C[C@@]1(O)[C@H]2Cc4ccc(O)c5c4[C@@]1(CCN2CC1CC1)[C@H]3O5)NCc1ccc(Cl)cc1 fall in?
Return: c1

Enquiry: Which band does N/C(=N\CCc1ccc2[nH]c3c(c2c1)C[C@@]1(O)[C@H]2Cc4ccc(O)c5c4[C@@]1(CCN2CC1CC1)[C@H]3O5)NCc1ccc([N+](=O)[O-])cc1 fall in?
Return: c1

Enquiry: Which band does N/C(=N/Cc1ccccc1)Nc1ccc2[nH]c3c(c2c1)C[C@@]1(O)[C@H]2Cc4ccc(O)c5c4[C@@]1(CCN2CC1CC1)[C@H]3O5 fall in?
Return: c1

Enquiry: Which band does CCCC/N=C(\NCCCC)NCCc1ccc2[nH]c3c(c2c1)C[C@@]1(O)[C@H]2Cc4ccc(O)c5c4[C@@]1(CCN2CC1CC1)[C@H]3O5 fall in?
Return: c3

Enquiry: Which band does N=C(N)NCCc1ccc2[nH]c3c(c2c1)C[C@@]1(O)[C@H]2Cc4ccc(O)c5c4[C@@]1(CCN2CC1CC1)[C@H]3O5 fall in?
Return: c1

---

Target system: Kappa-type opioid receptor (Homo sapiens)
Sequence (P41145 whole entry): as the sequence (P41145 whole entry, looked up, one chain of several) above
Each record here notes measured Ki.
Answer in nM, number only, no unit symbol.

Example results:
Chemical string | Quantity unit | Reported
N/C(=N/Cc1ccc(N)cc1)Nc1ccc2[nH]c3c(c2c1)C[C@@]1(O)[C@H]2Cc4ccc(O)c5c4[C@@]1(CCN2CC1CC1)[C@H]3O5 | nM | 0.63
N/C(=N\CCc1ccc2[nH]c3c(c2c1)C[C@@]1(O)[C@H]2Cc4ccc(O)c5c4[C@@]1(CCN2CC1CC1)[C@H]3O5)NCc1ccccc1 | nM | 1.42
N/C(=N/Cc1ccc(O)cc1)Nc1ccc2[nH]c3c(c2c1)C[C@@]1(O)[C@H]2Cc4ccc(O)c5c4[C@@]1(CCN2CC1CC1)[C@H]3O5 | nM | 3.26
CCCC/N=C(\NCCCC)Nc1ccc2[nH]c3c(c2c1)C[C@@]1(O)[C@H]2Cc4ccc(O)c5c4[C@@]1(CCN2CC1CC1)[C@H]3O5 | nM | 6.96
N/C(=N/Cc1cccc(O)c1)Nc1ccc2[nH]c3c(c2c1)C[C@@]1(O)[C@H]2Cc4ccc(O)c5c4[C@@]1(CCN2CC1CC1)[C@H]3O5 | nM | 2.74
CCCN/C(=N\CC1CC1)Nc1ccc2[nH]c3c(c2c1)C[C@@]1(O)[C@H]2Cc4ccc(O)c5c4[C@@]1(CCN2CC1CC1)[C@H]3O5 | nM | 2.38
N/C(=N\CCc1ccc2[nH]c3c(c2c1)C[C@@]1(O)[C@H]2Cc4ccc(O)c5c4[C@@]1(CCN2CC1CC1)[C@H]3O5)NCc1ccc([N+](=O)[O-])cc1 | nM | 2.14
Oc1ccc2c3c1O[C@H]1c4[nH]c5ccc(N/C(=N/CC6CC6)NCc6ccccc6)cc5c4C[C@@]4(O)[C@@H](C2)N(CC2CC2)CC[C@]314 | nM | 3.91

Now take the following compound into account.
Enquiry: Param readout = Ki; param system = Kappa-type opioid receptor (Homo sapiens); param query = N/C(=N/Cc1ccc([N+](=O)[O-])cc1)Nc1ccc2[nH]c3c(c2c1)C[C@@]1(O)[C@H]2Cc4ccc(O)c5c4[C@@]1(CCN2CC1CC1)[C@H]3O5 ; response: value
Return: 1.61

---

Target system: Opioid receptors; mu & kappa (Homo sapiens) (UniProt P41145+P35372)
Assay overview: Ratio of (Ki) mu-opioid receptor to that of (Ki) kappa-opioid receptor
Type: protein assay
Response field label: string, one of true (1) (Ratio strictly below 20) or false (0).

Field: example entries. Status: answers known.
Chemical string | Cat
Oc1ccc2c3c1O[C@H]1c4[nH]c5ccc(N/C(=N/CC6CC6)NCc6ccccc6)cc5c4C[C@@]4(O)[C@@H](C2)N(CC2CC2)CC[C@]314 | true (1)
N/C(=N/Cc1ccc(Cl)cc1)Nc1ccc2[nH]c3c(c2c1)C[C@@]1(O)[C@H]2Cc4ccc(O)c5c4[C@@]1(CCN2CC1CC1)[C@H]3O5 | false (0)
N/C(=N/Cc1ccc([N+](=O)[O-])cc1)Nc1ccc2[nH]c3c(c2c1)C[C@@]1(O)[C@H]2Cc4ccc(O)c5c4[C@@]1(CCN2CC1CC1)[C@H]3O5 | true (1)

Enquiry: Determine whether this compound shows Ratio lower than 20 (ties excluded): N=C(N)NCc1ccc2[nH]c3c(c2c1)C[C@@]1(O)[C@H]2Cc4ccc(O)c5c4[C@@]1(CCN2CC1CC1)[C@H]3O5
Return: false (0)

Enquiry: Determine whether this compound shows Ratio lower than 20 (ties excluded): CCCC/N=C(\NCCCC)Nc1ccc2[nH]c3c(c2c1)C[C@@]1(O)[C@H]2Cc4ccc(O)c5c4[C@@]1(CCN2CC1CC1)[C@H]3O5
Return: true (1)

Enquiry: Determine whether this compound shows Ratio lower than 20 (ties excluded): N/C(=N/Cc1ccc(N)cc1)Nc1ccc2[nH]c3c(c2c1)C[C@@]1(O)[C@H]2Cc4ccc(O)c5c4[C@@]1(CCN2CC1CC1)[C@H]3O5
Return: true (1)
